Cited source for all entries: PubChem BioAssay (Tox21)

experiment: qHTS RealTime-Glo MT Cell Viability Assay in HepG2 cells - 0 hour (AID 1224889); conditions: RealTime-Glo luminescence; series mostly up to 76.8 µM; also: nearly all actives have a fitted effect of over 50% in size
Inconclusive results are not listed. Active and inactive are the calls of the source. Calls follow the shape of the dose curve; as a rule, active = well fitted cell-killing curve with a large enough effect in the repeat runs; inconclusive = weak or mixed curves, or effect the other way; inactive = flat fitted curve, though single readings scatter.
Can you answer with just one of these options? active, inactive

# fetch the recorded call for CCCCC(CC)C(=O)OCCOCCOCCOCCOC(=O)C(CC)CCCC (configuration not stated) here
inactive

Tell me the recorded outcome of this test for CCCCCCCCCCCCCCC[C@H](O)[C@@H](N)CO .
inactive

Which outcome did this test record for the compound CCC(C(=O)OCCOCCN(CC)CC)c1ccccc1 (configuration not stated) ?
inactive

Any idea what this test logged for O=C(CCCCCCC(=O)Nc1ccccc1)NO ?
inactive

How was NCC1CCCC(CN)C1 (configuration not stated) classified in this test?
inactive

Test call for this compound, please: O=C(O)Cc1ccc(-c2ccccc2)cc1
inactive

Please indicate how the test categorized CC(N)CN (configuration not stated) .
inactive

What classification did NC(=O)Nc1ccc(Cl)cc1 end up with in this test?
inactive

Entry CCCCC(=O)O[C@]1(C(=O)CO)CC[C@H]2[C@@H]3CCC4=CC(=O)CC[C@]4(C)[C@H]3[C@@H](O)C[C@@]21C : call = ?
active

Which outcome was entered for the compound COC(=O)c1cc(S(N)(=O)=O)ccc1OC in this test?
inactive

In this assay, the call recorded for CCCCCCCC/C=C\CCCCCCCC(=O)OC(CO)CO was what?
inactive

How did this test come out for C=CCNc1nc(NCC=C)nc(N2CCN(C(c3ccc(F)cc3)c3ccc(F)cc3)CC2)n1 ?
inactive

How was OC(CCCN1CCCCC1)(c1ccccc1)c1ccccc1 classified in this test?
inactive

Given CCN(CC)CCNC(=O)c1ccc(NC(C)=O)cc1 , state the outcome it received in this test.
inactive

Outcome logged for c1cc[c]([Bi]([c]2ccccc2)[c]2ccccc2)cc1 in this assay:
inactive

For C=CC(C)=CCC=C(C)C , which call appears in the assay record?
inactive

// outcome(item) with item = O=C(/C=C/c1ccccc1)OCCCc1ccccc1
inactive

Give the logged outcome of this assay for the following compound: CCOC(=O)C(C)Oc1ccc(Oc2nc3ccc(Cl)cc3o2)cc1 (configuration not stated)
inactive

Tell me the assay call for COc1ccccc1N=Nc1c(S(=O)(=O)O)cc2cc(S(=O)(=O)O)cc(NC(C)=O)c2c1O please.
inactive

GET /call?item= CN1CCCN=C1/C=C/c1cccs1 returns the recorded outcome of this test.
inactive

Hello, I am checking results. What call was entered for COC(=O)CC(=O)C(C)(C)C ?
inactive

What did this assay record as the result for Cc1oc(C)c(C(=O)Nc2ccccc2)c1C ?
inactive

State the result this test recorded for C[Si]1(C)O[Si](C)(C)O[Si](C)(C)O1 .
inactive

Call for entry CNC(=O)N(c1ccccc1)c1ccccc1 :
inactive

Recorded call for CCCCCCCCCCOS(=O)(=O)O ?
inactive

Would you mind telling me which call this test gave CCOC(=O)CC(=O)C(=O)OCC ?
inactive

Could you please tell me the result logged for COc1ccc(C(=O)c2cccc(O)c2)c(OC)c1 in this assay?
inactive
